Just for reference, ChEMBL document CHEMBL1132774 is where these values come from.

Assayed target: UniProt:P07550
Sequence (P07550 whole entry): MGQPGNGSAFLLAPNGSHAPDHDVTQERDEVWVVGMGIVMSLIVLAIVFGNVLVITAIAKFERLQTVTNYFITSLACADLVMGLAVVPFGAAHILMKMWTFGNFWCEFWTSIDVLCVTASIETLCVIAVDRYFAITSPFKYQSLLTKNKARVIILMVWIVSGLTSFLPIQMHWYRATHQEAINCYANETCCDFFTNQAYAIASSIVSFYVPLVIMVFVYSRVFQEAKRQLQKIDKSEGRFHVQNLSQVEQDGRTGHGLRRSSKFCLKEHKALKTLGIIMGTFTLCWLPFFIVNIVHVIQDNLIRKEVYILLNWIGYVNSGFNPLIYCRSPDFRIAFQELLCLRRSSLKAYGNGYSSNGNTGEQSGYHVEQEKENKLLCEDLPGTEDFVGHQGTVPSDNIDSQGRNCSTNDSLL
Measurement description: Compound was evaluated for its inhibitory activity against human beta-2 adrenergic receptor (AR)
pEC50: −log10 of the molar value.
Short version: pEC50 at least 6 is Condition met, less is Condition not met.

[[record]]
molecule = "CCCCCCNC(=O)Nc1ccc(S(=O)(=O)Nc2cccc(-c3cccc(CC4NCCc5cc(O)c(O)cc54)c3)c2)cc1 (stereo unspecified)"
discrete_label = "Condition not met"

[[record]]
molecule = "CCCCCCNC(=O)Nc1ccc(S(=O)(=O)Nc2ccc(-c3ccc(OCC4NCCc5cc(O)c(O)cc54)cc3)cc2)cc1 (stereo unspecified)"
discrete_label = "Condition met"

[[record]]
molecule = "CCCCCCNC(=O)Nc1ccc(S(=O)(=O)Nc2ccc(-c3ccc(CC4NCCc5cc(O)c(O)cc54)cc3)cc2)cc1 (stereo unspecified)"
discrete_label = "Condition met"

[[record]]
molecule = "CCCCCCNC(=O)Nc1ccc(S(=O)(=O)Nc2ccc(-c3cccc(CC4NCCc5cc(O)c(O)cc54)c3)cc2)cc1 (stereo unspecified)"
discrete_label = "Condition not met"

